STUDY SYSTEM: T1, cyBCMA (cynomolgus, UniProt A0A2K5UD97 1-53)
T1 construct: Soluble analyte in SPR; construct not described; also called cyno BCMA
T1 sequence (A0A2K5UD97 entry or part of it): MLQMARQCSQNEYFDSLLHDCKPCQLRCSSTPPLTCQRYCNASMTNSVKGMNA
ASSAY SUMMARY: SPR, immobilised IgG, 37° C
READOUT NAME: T½ (min)
Give just the numeric value; min need not be written.

Value of T½ reported for the binder L3.PY/L1.AH/H2.QL (antibody, V domains shown, IgG in the assay) VH: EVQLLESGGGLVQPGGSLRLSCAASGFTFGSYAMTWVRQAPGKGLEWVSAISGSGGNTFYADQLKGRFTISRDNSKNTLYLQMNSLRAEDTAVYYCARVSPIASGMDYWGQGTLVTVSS VL: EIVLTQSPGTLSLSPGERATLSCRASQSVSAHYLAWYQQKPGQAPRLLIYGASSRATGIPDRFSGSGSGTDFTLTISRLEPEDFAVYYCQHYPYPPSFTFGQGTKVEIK is 1.21
